- Tested on: L1210
- assay-explanation: Toxicity against L-1210 leukemia cells in mice after intraperitoneal administration, activity is expressed as LD10
- measurement-setup: mouse, in vivo, ip
Labelling field: enter Fulfilled if recorded log(1/LD10) is less than 0.8. Enter Not fulfilled if it equals or exceeds that cut-off.

| compound | group-label |
| --- | --- |
| CC1CC(O)C(NC(=O)N(CCCl)N=O)C(O)C1 (stereo unspecified) | Not fulfilled |
| O=NN(CCCl)C(=O)NC1CC2CCC1C2 (stereo unspecified) | Fulfilled |
| O=NN(CCCl)C(=O)N[C@H]1CC[C@@H](C(=O)O)CC1 | Not fulfilled |
| CC(C)C1CCC(NC(=O)N(CCF)N=O)CC1 (stereo unspecified) | Fulfilled |

###

- assay-explanation: Partition coefficient (logP)
- Assay type: physicochemical
- measurement-setup: octanol/water; read-out: logP
# if value of logP reaches 2, tag class 1; if it stays below, tag class 0

| compound | group-label |
| --- | --- |
| O=NN(CCF)C(=O)NC1CC2CCC1C2 (stereo unspecified) | class 1 |
| CO[C@H]1CC[C@H](NC(=O)N(CCCl)N=O)CC1 | class 1 |
| CC1SCC(NC(=O)N(CCCl)N=O)CS1 (stereo unspecified) | class 1 |
| O=NN(CCF)C(=O)NC1CSCSC1 | class 0 |
| O=NN(CCF)C(=O)NC1CCCCCCCCCCC1 | class 1 |
| CN(C(=O)N(CC/C=N/C(=O)N(CCCl)N=O)N=O)C1CCCCC1 | class 1 |
| CCC1CCC(NC(=O)N(CCF)N=O)CC1 (stereo unspecified) | class 1 |
| CO[C@H]1CC[C@@H](NC(=O)N(CCCl)N=O)CC1 | class 1 |
| COC(=O)[C@H]1CC[C@H](NC(=O)N(CCCl)N=O)CC1 | class 0 |
| NC(=O)N(CCCl)N=O | class 0 |
| O=NN(CCF)C(=O)NCCF | class 0 |
| CC(=O)OCC1CCC(NC(=O)N(CCCl)N=O)CC1 (stereo unspecified) | class 1 |
| O=NN(CCCl)C(=O)NC1CCCCC1NC(=O)N(CCCl)N=O (stereo unspecified) | class 1 |
| O=NN(CCF)C(=O)NC1CCC(NC(=O)N(CCCl)N=O)CC1 (stereo unspecified) | class 1 |
| O=NN(CCCl)C(=O)NC1CCC(CC2CCC(NC(=O)N(CCCl)N=O)CC2)CC1 (stereo unspecified) | class 1 |
| CC(C)(Cc1ccccc1)NC(=O)N(CCCl)N=O | class 1 |
| O=NN(CCCl)C(=O)N[C@H]1CC[C@H](CC(=O)O)CC1 | class 1 |
| Cc1cc(C)c(NC(=O)N(CCCl)N=O)c(C)c1 | class 1 |
| COC(=O)[C@H]1CC[C@@H](NC(=O)N(CCCl)N=O)CC1 | class 0 |
| O=NN(CCCl)C(=O)NC1C(O)CCCC1O (stereo unspecified) | class 0 |
| O=NN(CCCl)C(=O)NC(Cc1ccccc1)C(=O)O (stereo unspecified) | class 1 |
| O=NN(CCCl)C(=O)NC1CCCCCCCCCCC1 | class 1 |
| CC1CC(O)C(NC(=O)N(CCCl)N=O)C(O)C1 (stereo unspecified) | class 0 |
| O=NN(CCCl)C(=O)N[C@@H]1CCC[C@@H](O)C1 | class 0 |
| O=NN(CCF)C(=O)NC1CCS(=O)(=O)CC1 | class 0 |
| O=NN(CCCl)C(=O)N[C@H]1CC[C@H](C(=O)O)CC1 | class 0 |

###

- Tested on: L1210
- assay-explanation: Toxicity against L-1210 leukemia cells in mice after intraperitoneal administration, activity is expressed as LD10
- measurement-setup: mouse, in vivo, ip
Labelling field: enter Satisfied if recorded log(1/LD10) is less than 0.8. Enter Not satisfied if it equals or exceeds that cut-off.

| molecule | group-label |
| --- | --- |
| O=NN(CCCl)C(=O)NC(C(=O)O)C1CCCCC1 (stereo unspecified) | Satisfied |
| O=NN(CCCl)C(=O)N[C@H]1CC[C@@H](CC(=O)O)CC1 | Satisfied |
| O=NN(CCCl)C(=O)NC1CS(=O)(=O)CS(=O)(=O)C1 | Not satisfied |
| CC1CCC(NC(=O)N(CCF)N=O)CC1 (stereo unspecified) | Satisfied |
| CC12CC3(C)CC(C)(C1)CC(NC(=O)N(CCCl)N=O)(C2)C3 | Satisfied |
| O=NN(CCCl)C(=O)NC1CCS(=O)(=O)C1 (stereo unspecified) | Not satisfied |
| O=NN(CCCl)C(=O)NC(CCC(=O)O)C(=O)O (stereo unspecified) | Satisfied |
| COC(=O)[C@H]1CC[C@H](NC(=O)N(CCCl)N=O)CC1 | Not satisfied |
| O=NN(CCCl)C(=O)NC1CCCC(C(=O)O)C1 (stereo unspecified) | Not satisfied |
| O=NN(CCCl)C(=O)NCCCl | Satisfied |

###

As shown below, each of these compounds has a reported logP value.
- assay-explanation: Partition coefficient (logP)
- Format: physicochemical
- measurement-setup: octanol/water; read-out: logP

| compound | logP |
| --- | --- |
| CCCCCC(C)NC(=O)N(CCCl)N=O (configuration not stated) | 3.55 |
| O=NN(CCCl)C(=O)NC1CCSCC1 | 2.07 |
| CC(C)C1CCC(NC(=O)N(CCF)N=O)CC1 (configuration not stated) | 3.67 |
| C[C@H]1CCC[C@@H](NC(=O)N(CCCl)N=O)C1 | 3.37 |
| O=NN(CCF)C(=O)NC1CS(=O)(=O)CS(=O)(=O)C1 | -1.48 |
| O=NN(CCCl)C(=O)N[C@@H]1CCCC[C@H]1O | 1.34 |
| O=NN(CCCl)C(=O)NC1CSCSC1 | 2.08 |
| O=NN(CCCl)C(=O)N[C@@H]1CCCC[C@@H]1Cl | 2.73 |
| CC(C)(C)C1CCC(NC(=O)N(CCCl)N=O)CC1 (configuration not stated) | 4.66 |
| C[C@H]1CC[C@@H](NC(=O)N(CCCl)N=O)CC1 | 3.3 |
| CN(C)C(=O)c1ccc(NC(=O)N(CCCl)N=O)cc1 | 1.07 |
| CC(=O)OC1OC(C)C(OC(C)=O)C(OC(C)=O)C1NC(=O)N(CCCl)N=O (configuration not stated) | 1.32 |
| O=NN(CCCl)C(=O)N[C@H]1CC[C@@H](CC(=O)O)CC1 | 2.22 |
| CCC1CCC(NC(=O)N(CCCl)N=O)CC1 (configuration not stated) | 3.84 |
| O=NN(CCF)C(=O)NC1C2CC3CC(C2)CC1C3 (configuration not stated) | 3.04 |
| O=NN(CCCl)C(=O)NC1C=CCCC1 (configuration not stated) | 2.45 |
| O=NN(CCCl)C(=O)NC12CC3CC(CC(C3)C1)C2 | 3.62 |

###

- assay-explanation: Partition coefficient (logP)
- Format: physicochemical
- measurement-setup: octanol/water; read-out: logP
Labelling field: enter criterion met if recorded logP is less than 2. Enter criterion not met if it equals or exceeds that cut-off.

| compound | group-label |
| --- | --- |
| COCC1OC(O)C(NC(=O)N(CCCl)N=O)C(OC)C1OC (stereo not drawn) | criterion met |
| CCOC(=O)C1(NC(=O)N(CCCl)N=O)CCCC1 | criterion not met |
| CC(C)(C)C1CCCC(NC(=O)N(CCCl)N=O)C1 (stereo not drawn) | criterion not met |
| CC(C)(NC(=O)N(CCCl)N=O)C(=O)O | criterion met |
| O=NN(CCCl)C(=O)NC1CCCC(NC(=O)N(CCCl)N=O)C1 (stereo not drawn) | criterion not met |
| O=NN(CCCl)C(=O)NC1CCS(=O)(=O)C1 (stereo not drawn) | criterion met |
| O=COCC1CCC(NC(=O)N(CCCl)N=O)CC1 (stereo not drawn) | criterion met |
| CC(=O)OCC1CCC(NC(=O)N(CCF)N=O)CC1 (stereo not drawn) | criterion met |

###

As shown below, each of these molecules has a reported log(1/LD10) value.
- Test system: L1210
- assay-explanation: Toxicity against L-1210 leukemia cells in mice after intraperitoneal administration, activity is expressed as LD10
- measurement-setup: mouse, in vivo, ip

| molecule | log(1/LD10) |
| --- | --- |
| O=NN(CCCl)C(=O)NC1CCSCC1 | 1.25 |
| O=NN(CCF)C(=O)NC1CCS(=O)(=O)CC1 | 0.922 |
| CC(=O)OC1OC(C)C(OC(C)=O)C(OC(C)=O)C1NC(=O)N(CCCl)N=O (stereo not drawn) | 1.21 |
| O=NN(CCCl)C(=O)NC1CCSc2ccccc21 (stereo not drawn) | 0.585 |
| Cc1cc(C)c(NC(=O)N(CCCl)N=O)c(C)c1 | 0.675 |
| CC(=O)OCC1CCC(NC(=O)N(CCF)N=O)CC1 (stereo not drawn) | 0.705 |
| O=NN(CCCl)C(=O)N[C@H]1C(O)O[C@H](CO)[C@@H](O)[C@@H]1O (stereo in doubt; 75) [CHLOROZOTOCIN] | 1.03 |
| CC(=O)O[C@H]1CCCC[C@@H]1NC(=O)N(CCCl)N=O | 0.91 |
